Origin of values: paper PMC9482650

Target: T1, RHPN1, Q8TCX5
T1 sequence (Q8TCX5 508-602, limits assumed, looked up): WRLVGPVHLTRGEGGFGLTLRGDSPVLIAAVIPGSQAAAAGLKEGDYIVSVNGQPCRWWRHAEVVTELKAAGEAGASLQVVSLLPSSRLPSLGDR
Protocol Text: holdup assay
Parameters: key: below the threshold = too weak to quantify, mostly under pKd 3.1 to 4
Stated Conditions: plain residues with an end cap or a label only (N-terminal biotin on a linker: ttds)
Assay Metric: pKd
Answers are plain numbers.

As a guide, the following entries are already answered.
RSLEEEESQL [GRASP, Q7Z6J2] ... 4.71
SVWLRKETRV [CYSLTR2, Q9NS75] ... 4.08
STLTIFETAL [ABCC4, O15439] ... 4.87
VLRLQSETSV [VANGL1, Q8TAA9] ... 4.37

In the following, a different binder is considered.
Quick check: pKd of IYVPEAQTRL [DLGAP4, Q9Y2H0] ?
4.42
